- Tested on: DU-145 prostate
- Assay Method Text: NCI tumour cell line growth inhibition, 48 h
Assay Readout: TGI

Q) Data request, read-out TGI, for `NC(CCC(=O)O)(CCC(=O)O)CCC(=O)O`
A) > 100 µM

Q) Here is the next molecule: `C[n+]1cccc2ccc(OC(=O)c3ccccc3)cc21`
A) > 100 µM

Q) Here is the next molecule: `O=C1C(=Nc2ccccc2)Oc2cc(O)ccc21`
A) > 100 µM

Q) Here is the next molecule: `O=c1cc(N=Nc2ccc(O)cc2)[nH]c(=O)[nH]1`
A) > 100 µM

Q) Here is the next molecule: `CC(=O)N1N(c2ccc([N+](=O)[O-])cc2)C(=O)C1(C)C`
A) > 100 µM

Q) Here is the next molecule: COC(=O)C1CCC(=O)N1C(c1ccccc1)c1cc(OC)c(OC)c(OC)c1 (configuration not stated)
A) > 100 µM

Q) Here is the next molecule: `Cn1c(=O)c2c(ncn2CCCCOc2ccc3c(c2)[n+]([O-])nc(N)[n+]3[O-])n(C)c1=O`
A) > 100 µM
